Brain 5-HIAA reference
System: Brain 5-hydroxyindoles
Experiment summary: brain 5-hydroxyindoles in vivo after subcutaneous injection
Design: species or system male albino rats
Assay setup: 0.003 mg/Kg s.c., 1 hour; * = P<0.05 vs control
Quantity kind: Brain 5-HIAA (n moles/g)

Molecule	Result
CCCN(CCC)C1Cc2c(C(=O)C(C)C)ccc3c2C(CN3)C1 (single isomer, unassigned; (-)) [Example 9]	1.68
CCCN(CCC)[C@@H]1Cc2c(C(C)=O)ccc3c2[C@H](CN3)C1 [Example 7]	2.06
CCCN(CCC)[C@H]1Cc2c(C(=O)C(C)C)ccc3c2[C@@H](CN3)C1 [Example 8]	1.56
CCCN(CCC)[C@H]1Cc2c(C(C)=O)ccc3c2[C@@H](CN3)C1 [Example 6]	1.81
